experiment: Mouse plasma stability; assay type: in vitro ADME, CD-1 mouse; conditions: Table 2, 37° C., 1 μM lipid
parameter: Plasma half life % remaining after 2 h (%)

{"compound": "CN(C)CCCSC(=O)N(CCCC(=O)OC(COC(=O)C1CC2CCCCC2C1)COC(=O)C1CC2CCCCC2C1)CCCC(=O)OC(COC(=O)C1CC2CCCCC2C1)COC(=O)C1CC2CCCCC2C1 (stereo not drawn)", "result_value": 100}
{"compound": "CC1CCC(CCC(=O)OCC(COC(=O)CCC2CCC(C)CC2)COC(=O)CCN(CCC(=O)OCC(COC(=O)CCC2CCC(C)CC2)COC(=O)CCC2CCC(C)CC2)C(=O)SCCCN(C)C)CC1 (stereo not drawn)", "result_value": 100}
{"compound": "CCC1CCC(C(=O)OCC(C)(COC(=O)CCN(CCC(=O)OCC(C)(COC(=O)C2CCC(CC)CC2)COC(=O)C2CCC(CC)CC2)C(=O)SCCCN(C)C)COC(=O)C2CCC(CC)CC2)CC1 (stereo not drawn)", "result_value": 100}
